- system: PD-L1 His protein / PD-1 Fc protein (Homo sapiens (Human))
- Sequence (Q9NZQ7 19-238): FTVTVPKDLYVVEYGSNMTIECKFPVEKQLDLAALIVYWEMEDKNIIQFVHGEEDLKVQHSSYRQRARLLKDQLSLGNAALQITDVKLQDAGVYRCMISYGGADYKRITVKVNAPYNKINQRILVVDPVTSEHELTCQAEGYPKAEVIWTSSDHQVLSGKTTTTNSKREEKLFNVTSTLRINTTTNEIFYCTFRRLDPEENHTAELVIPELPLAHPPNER
- test_details: HTRF Assay (PD-1/PD-L1 interaction)
- Assay type: binding
- conditions: PD-L1 His 6 nM, PD-1 Fc 6 nM
measured_property: log10 IC50 (log10 of the value in pM)
Please interpret these as log10 of IC50 where IC50 is in pM.

- molecule: "COc1cc(-c2nccc(-c3cccc(NC(=O)c4cn(C)c(=O)n(C)c4=O)c3Cl)c2Cl)ccc1CNC1CCN(C(C)=O)CC1 [Example 656]"
  system: "PD-L1 His protein / PD-1 Fc protein (Homo sapiens (Human))"
  endpoint_value: 2.20
- molecule: "COc1cc(-c2nccc(-c3cccc(-c4ccc(CNC5CCN(C(C)=O)CC5)c(OC)n4)c3Cl)c2Cl)ccc1CN[C@@H](CCO)C(=O)O [Example 343]"
  system: "PD-L1 His protein / PD-1 Fc protein (Homo sapiens (Human))"
  endpoint_value: 1.95
- molecule: "COc1nc(-c2ccnc(-c3cccc4c3CC[C@@H]4Oc3nc(OC)c(CNC[C@@H]4CCC(=O)N4)cc3C(F)(F)F)c2Cl)ccc1CNC1CCN(C(C)=O)CC1 [Example 544]"
  system: "PD-L1 His protein / PD-1 Fc protein (Homo sapiens (Human))"
  endpoint_value: 2.90
- molecule: "COc1cc(-c2nccc(-c3cccc(NC(=O)c4ccc(CNCCO)cn4)c3Cl)c2Cl)ccc1CNC[C@@H]1CCC(=O)N1 [Example 755]"
  system: "PD-L1 His protein / PD-1 Fc protein (Homo sapiens (Human))"
  endpoint_value: 2.08
- molecule: "COc1cc(-c2nccc(-c3cccc(-c4ccc5c(CN6CC7(CNC(=O)C7)C6)cn(C)c5n4)c3Cl)c2Cl)ccc1CNC[C@@H]1CCC(=O)N1 [Compound 219]"
  system: "PD-L1 His protein / PD-1 Fc protein (Homo sapiens (Human))"
  endpoint_value: 3.44

Turning now to a further molecule:
Note down log10 IC50 recorded for COc1cc(-c2nccc(-c3cccc(-c4ccc(CNC5CCOCC5)c(OC)n4)c3F)c2Cl)ccc1CNC1CCOCC1 [Example 440]
4.00
